# System: HCT-116 cell line
# PROCEDURE_SUMMARY: Inhibition of cell growth, MTT tetrazolium salt assay
# Type: cell-based
# CONDITION_NOTES: HCT-116 cells, 0.1 μM compound
Answer each item with its documented HCT-116 % Inhibition at 0.1 μM.
Record the value in %, omitting the unit from your answer.

Q: Report HCT-116 % Inhibition at 0.1 μM for Nc1nc(Nc2ccc(C(=O)NCc3cccc(Cl)c3)cc2)sc1C(=O)c1c(F)cccc1F [Example G324]
A: 5

Q: Check the records and state HCT-116 % Inhibition at 0.1 μM for CC(O)c1cccc(NC(=O)c2ccc(Nc3nc(N)c(C(=O)c4c(F)cccc4F)s3)cc2)c1 (stereo not shown) [Example G222]
A: 8

Q: Complete the entry with HCT-116 % Inhibition at 0.1 μM for C=CCNC(=O)c1ccc(Nc2nc(N)c(C(=O)c3c(F)cccc3F)s2)cc1 [Example G219]
A: 8

Q: Supply measured HCT-116 % Inhibition at 0.1 μM of Nc1nc(Nc2ccc(C(=O)NCc3ccccc3C(F)(F)F)cc2)sc1C(=O)c1c(F)cccc1F [Example G269] in your reply.
A: 19

###

# TESTED_ON: CDK2/cyclin A (Homo sapiens, UniProt P24941)
# Construct: made in house; host or cells: CDK2: insect cells (baculovirus); cyclin A: E. coli
# PROCEDURE_SUMMARY: Inhibition of CDK2/cyclin A retinoblastoma kinase activity (Ki; % inhibition)
# Assay type: biochemical
# CONDITION_NOTES: 0.03 μM compound
PARAMETER: CDK2 % Inhibition at 0.03 μM (%)
Answer with a number only, understood to be in %.

Q: State CDK2 % Inhibition at 0.03 μM (CDK2/cyclin A (Homo sapiens, UniProt P24941)) of `CN(C)CCN1CCN(C(=O)c2ccc(Nc3nc(N)c(C(=O)c4c(F)cccc4F)s3)cc2)CC1` .
A: −17

Q: Consider the molecule `CCN(CCNC(=O)c1ccc(Nc2nc(N)c(C(=O)c3c(F)cccc3F)s2)cc1)c1cccc(C)c1` tested on CDK2/cyclin A (Homo sapiens, UniProt P24941); state its CDK2 % Inhibition at 0.03 μM.
A: 48

Q: Give reported CDK2 % Inhibition at 0.03 μM for `Nc1nc(Nc2ccc(C(=O)NCc3ccc(F)c(F)c3)cc2)sc1C(=O)c1c(F)cccc1F` (CDK2/cyclin A (Homo sapiens, UniProt P24941))
A: 27

Q: Write CDK2 % Inhibition at 0.03 μM of `CC(C)(CO)CNC(=O)c1ccc(Nc2nc(N)c(C(=O)c3c(F)cccc3F)s2)cc1` ; system used: CDK2/cyclin A (Homo sapiens, UniProt P24941)
A: 2

Q: Look up and report CDK2 % Inhibition at 0.03 μM, with CDK2/cyclin A (Homo sapiens, UniProt P24941) as system, for `Nc1nc(Nc2ccc(C(=O)NCCCO)cc2)sc1C(=O)c1c(F)cccc1F`
A: −2

Q: Quote CDK2/cyclin A (Homo sapiens, UniProt P24941) CDK2 % Inhibition at 0.03 μM for entry `Cc1ccc(CNC(=O)c2ccc(Nc3nc(N)c(C(=O)c4c(F)cccc4F)s3)cc2)cc1Cl` .
A: 27

Q: Provide the reported CDK2 % Inhibition at 0.03 μM (system: CDK2/cyclin A (Homo sapiens, UniProt P24941)) for `Nc1nc(Nc2ccc(C(=O)NCc3cccc(F)c3)cc2)sc1C(=O)c1c(F)cccc1F`
A: 29

Q: Find CDK2 % Inhibition at 0.03 μM for `Nc1nc(Nc2ccc(C(=O)NCCc3ccccc3F)cc2)sc1C(=O)c1c(F)cccc1F` on CDK2/cyclin A (Homo sapiens, UniProt P24941) and write it down.
A: 13

Q: Send back CDK2/cyclin A (Homo sapiens, UniProt P24941) CDK2 % Inhibition at 0.03 μM of `CCN(CCCCO)C(=O)c1ccc(Nc2nc(N)c(C(=O)c3c(F)cccc3F)s2)cc1` only.
A: 1

Q: Provide CDK2/cyclin A (Homo sapiens, UniProt P24941) CDK2 % Inhibition at 0.03 μM reading for `CCOc1ccccc1CNC(=O)c1ccc(Nc2nc(N)c(C(=O)c3c(F)cccc3F)s2)cc1` .
A: 13

Q: Write CDK2 % Inhibition at 0.03 μM of `CCCCN(C)C(=O)c1ccc(Nc2nc(N)c(C(=O)c3c(F)cccc3F)s2)cc1` ; system used: CDK2/cyclin A (Homo sapiens, UniProt P24941)
A: 8

Q: Supply CDK2 % Inhibition at 0.03 μM measured with CDK2/cyclin A (Homo sapiens, UniProt P24941) for Nc1nc(Nc2ccc(C(=O)NC3CCC(O)CC3)cc2)sc1C(=O)c1c(F)cccc1F (stereo not shown) .
A: 11

Q: State CDK2 % Inhibition at 0.03 μM (CDK2/cyclin A (Homo sapiens, UniProt P24941)) of `Nc1nc(Nc2ccc(C(=O)N[C@H](CO)CC3CCCCC3)cc2)sc1C(=O)c1c(F)cccc1F` .
A: −7

Q: Supply CDK2 % Inhibition at 0.03 μM measured with CDK2/cyclin A (Homo sapiens, UniProt P24941) for `CCSCCNC(=O)c1ccc(Nc2nc(N)c(C(=O)c3c(F)cccc3F)s2)cc1` .
A: −6

Q: Report value only: CDK2 % Inhibition at 0.03 μM, CDK2/cyclin A (Homo sapiens, UniProt P24941), `CN(Cc1ccccc1Cl)C(=O)c1ccc(Nc2nc(N)c(C(=O)c3c(F)cccc3F)s2)cc1`
A: −30

Q: Lab note: record CDK2 % Inhibition at 0.03 μM of `Nc1nc(Nc2ccc(C(=O)Nc3cccc(O)c3)cc2)sc1C(=O)c1c(F)cccc1F` tested on CDK2/cyclin A (Homo sapiens, UniProt P24941).
A: 40

Q: Fetch value of CDK2 % Inhibition at 0.03 μM on CDK2/cyclin A (Homo sapiens, UniProt P24941) for `Nc1nc(Nc2ccc(C(=O)NCc3cccc(Cl)c3Cl)cc2)sc1C(=O)c1c(F)cccc1F` .
A: 29

Q: # return CDK2 % Inhibition at 0.03 μM for `Nc1nc(Nc2ccc(C(=O)N3CCN(CCc4cccs4)CC3)cc2)sc1C(=O)c1c(F)cccc1F` , test system: CDK2/cyclin A (Homo sapiens, UniProt P24941)
A: 17

Q: Supply CDK2 % Inhibition at 0.03 μM measured with CDK2/cyclin A (Homo sapiens, UniProt P24941) for CC1CCCCN1CCCNC(=O)c1ccc(Nc2nc(N)c(C(=O)c3c(F)cccc3F)s2)cc1 (stereo not shown) .
A: 2

Q: // fetch CDK2 % Inhibition at 0.03 μM; item: `Nc1nc(Nc2ccc(C(=O)Nc3ccc(CCO)cc3)cc2)sc1C(=O)c1c(F)cccc1F` ; system: CDK2/cyclin A (Homo sapiens, UniProt P24941)
A: 19

Q: Enter recorded CDK2 % Inhibition at 0.03 μM with CDK2/cyclin A (Homo sapiens, UniProt P24941) for `CN(CCC1OCCO1)C(=O)c1ccc(Nc2nc(N)c(C(=O)c3c(F)cccc3F)s2)cc1` here.
A: 10

Q: Report measured CDK2 % Inhibition at 0.03 μM on CDK2/cyclin A (Homo sapiens, UniProt P24941); entry: `COc1cccc(CCNC(=O)c2ccc(Nc3nc(N)c(C(=O)c4c(F)cccc4F)s3)cc2)c1OC`
A: 7

Q: // output CDK2 % Inhibition at 0.03 μM; input `Nc1nc(Nc2ccc(C(=O)NCCOCCO)cc2)sc1C(=O)c1c(F)cccc1F` ; system CDK2/cyclin A (Homo sapiens, UniProt P24941)
A: −9

Q: Determine reported CDK2 % Inhibition at 0.03 μM for `Cc1ccc(O)c(NC(=O)c2ccc(Nc3nc(N)c(C(=O)c4c(F)cccc4F)s3)cc2)c1` ; test system: CDK2/cyclin A (Homo sapiens, UniProt P24941).
A: −6

Q: Give CDK2 % Inhibition at 0.03 μM for this entry on CDK2/cyclin A (Homo sapiens, UniProt P24941): `COc1ccc(OC)c(CCNC(=O)c2ccc(Nc3nc(N)c(C(=O)c4c(F)cccc4F)s3)cc2)c1`
A: −5

Q: State measured CDK2 % Inhibition at 0.03 μM of the molecule `Nc1nc(Nc2ccc(C(=O)NCCc3c[nH]c4ccccc34)cc2)sc1C(=O)c1c(F)cccc1F` with CDK2/cyclin A (Homo sapiens, UniProt P24941).
A: 32

Q: Using CDK2/cyclin A (Homo sapiens, UniProt P24941) as the test system, report measured CDK2 % Inhibition at 0.03 μM of CC(CCCC(C)(C)O)NC(=O)c1ccc(Nc2nc(N)c(C(=O)c3c(F)cccc3F)s2)cc1 (stereo not shown) .
A: 9

Q: Report the value of CDK2 % Inhibition at 0.03 μM obtained on CDK2/cyclin A (Homo sapiens, UniProt P24941) for `Nc1nc(Nc2ccc(C(=O)Nc3cccc(OC(F)(F)F)c3)cc2)sc1C(=O)c1c(F)cccc1F` .
A: −31

Q: Name the value of CDK2 % Inhibition at 0.03 μM reported for Nc1nc(Nc2ccc(C(=O)NCC3COc4ccccc4O3)cc2)sc1C(=O)c1c(F)cccc1F (stereo not shown) when tested on CDK2/cyclin A (Homo sapiens, UniProt P24941).
A: 38

Q: For CDK2/cyclin A (Homo sapiens, UniProt P24941), give CDK2 % Inhibition at 0.03 μM of the listed molecule: `Nc1nc(Nc2ccc(C(=O)N[C@@H]3CCN(Cc4ccccc4)C3)cc2)sc1C(=O)c1c(F)cccc1F`
A: 8

Q: Give the observed CDK2 % Inhibition at 0.03 μM of `C#CCN(C)C(=O)c1ccc(Nc2nc(N)c(C(=O)c3c(F)cccc3F)s2)cc1` for CDK2/cyclin A (Homo sapiens, UniProt P24941).
A: −14
